- SYSTEM: T1, FOXP1-ES forkhead domain (exon 18b) (Homo sapiens)
- T1 chain: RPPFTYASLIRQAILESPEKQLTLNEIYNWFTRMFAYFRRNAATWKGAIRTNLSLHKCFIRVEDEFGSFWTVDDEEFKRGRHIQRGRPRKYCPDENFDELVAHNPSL
- EXPERIMENT: EMSA; no appreciable shift
- STATED CONDITIONS: tags: GST fusion; label: radiolabeled
QUANTITY: binding result

1. AACCCCAA x2 mutant (dsDNA) DNA 1: AACCCCAACCAACCCCAA DNA 2: TTGGGGTTGGTTGGGGTT: no binding
2. CCACTCAA x2 mutant (dsDNA) DNA 1: CCACTCAACCCCACTCAA DNA 2: TTGAGTGGGGTTGAGTGG: no binding
3. ATGCAGGA x2 mutant (dsDNA) DNA 1: ATGCAGGACCATGCAGGA DNA 2: TCCTGCATGGTCCTGCAT: no binding
4. CTATCCAA x2 mutant (dsDNA) DNA 1: CTATCCAACCCTATCCAA DNA 2: TTGGATAGGGTTGGATAG: no binding

Source listed as patent US20140134737.
